Tested on: Wolbachia pipientis
Experiment: Anti-Wolbachia Cell-Based Screen
Format: functional
Design: scale not given: in the data most compounds retested in dose-response had high values
Details: 5 µM
Screen size: about 48,000 compounds; about 13,000 (27%) showed an effect of 50% or more. The list shows a part of the results.
We begin with a simple list: items and their reported Percent Effect.
Numeric only. Scale: %

1) CNc1cc(CCNC(=O)C2CCCC2)nc(-c2ccccn2)n1 | 117
2) O=C(c1ccc2nccn2c1)N1CCCC1c1noc(C2CC2)n1 (stereo not given) | 1.976

So what does the record say about Percent Effect for CC(C)c1noc(C(C)N2CCN(CCc3ccncc3)CC2)n1 (stereo not given) ?
-3.07

Query: Percent Effect; subject: CCOCCCNC(=O)NCc1c(C)nn(C)c1C
102.2

Entry CCCc1nc(N(C)Cc2cnc(NC)nc2)c2cnn(C)c2n1 has what Percent Effect?
3.632

What value of measured Percent Effect is listed for CN(C)C(=O)c1cccc(CCNS(=O)(=O)c2ccccc2)c1 ?
19.97

The measured values listed here are drawn from ChEMBL document CHEMBL3988442.
